assay: Determination of LD50 value; details: male, Swiss Webster Albino, mouse, in vivo, ip
endpoint_label: LD50 at 72 h (mg/kg)
All answers are understood in mg/kg, so give the number only.

Using the record for COc1cccc2c1C(=O)c1c(O)c3c(c(O)c1C2=O)C[C@@](O)(C(=O)CO)C[C@@H]3O[C@H]1C[C@H](N)[C@H](O)[C@H](C)O1 , state its measured LD50 at 72 h.
60

The record that follows has no LD50 at 72 h shown yet.
Assign LD50 at 72 h to the following record: COc1ccc(-c2csc3nc4ccccc4n23)cc1
2000

---

system: MCF-7; assay: Cell proliferation by 3H-thymidine uptake assay; assay type: cell-based; conditions: Homo sapiens, MCF7, 72 h, read-out: IC50, growth inhibition (3H-thymidine uptake)
pIC50: −log10 of the molar value.
endpoint_label: pIC50

Report pIC50 on MCF-7 for this entry: COc1ccc(-c2csc3nc4ccccc4n23)cc1
~5.30
